Biological target: T1, hu-CD74 antigen (R&D SYSTEMS catalog #3590-CD-050) (human, UniProt P04233-2 73-232, limits assumed)
T1 construct: Bought antigen; also called rhCD74; human CD74
T1 sequence (looked up): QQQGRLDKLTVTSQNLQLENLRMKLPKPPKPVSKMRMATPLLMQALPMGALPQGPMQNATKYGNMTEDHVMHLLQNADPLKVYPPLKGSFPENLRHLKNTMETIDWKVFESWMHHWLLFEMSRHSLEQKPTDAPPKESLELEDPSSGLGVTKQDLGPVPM
Experiment: SPR (Biacore T200), captured on anti-human Fc, rhCD74 analyte
Measured pKd, listed per entry for reference.
// pKd here means minus log10 of the molar concentration (mol/L)

Answered examples (4):
• 1251-C03 heavy chain paired with VL SEQ ID NO: 272 (antibody, V domains shown) VH: QVQLVESGGGVVQPGRSLRLSCAASGFNFSSYGMHWVRQAPDKGLEWVAVIWYDGSIKNYADSVKGRFTISRDNSKNTLYLQMNSLRAEDTAVYYCARGGALMRGEFSGHDVWGQGTTVTVSS VL: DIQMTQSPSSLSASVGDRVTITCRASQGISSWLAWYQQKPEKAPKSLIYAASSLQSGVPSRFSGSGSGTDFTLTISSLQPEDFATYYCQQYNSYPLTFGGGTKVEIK = 8.79
• 1275-G02 light chain paired with HC 1251-F07 (SEQ ID NO: 311) (antibody, human IgG1, V domains shown) VH: QVQLVESGGGVVQPGRSLRLSCAASGFTFSSHGMHWVRQAPDKGLEWVAVIWDDGSNEVYADSVKGRFTISRDNSKNTLYLQMNSLRAEDTAVYYCARGGTRIRGLRYGTDVWGQGTTVTVSS VL: DIQMTQSPSSLSASVGDRVTITCRASQGLGSFLAWYQQKPEKAPKSLIYLGNLLQIGVPSRFSGSGSGTDFTLTISSLQPEDFATYYCQQYNAYPLTFGGGTKVEIK = 9.28
• 1251-A02 heavy chain paired with VL SEQ ID NO: 272 (antibody, V domains shown, Selected from a Fab library; VH3-33 / Vk1-12) VH: QVQLVESGGGVVQPGRSLRLSCAASGFAFSDHGMHWVRQAPDKGLEWVAVIWYDGSHKIYADSVKGRFTISRDNSKNTLYLQMNSLRAEDTAVYYCARGGSLAGGAVYGTDVWGQGTTVTVSS VL: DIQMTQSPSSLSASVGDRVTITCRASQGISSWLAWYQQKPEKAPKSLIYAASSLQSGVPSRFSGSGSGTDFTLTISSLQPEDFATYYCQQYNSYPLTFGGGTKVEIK = 9.70
• 1251-D02 heavy chain paired with VL SEQ ID NO: 272 (antibody, V domains shown) VH: QVQLVESGGGVVQPGRSLRLSCAASGFSFASHGMHWVRQAPDKGLEWVAVIWDDGSDRYYADSVKGRFTISRDNSKNTLYLQMNSLRAEDTAVYYCARGGTRVLGAIHGTDVWGQGTTVTVSS VL: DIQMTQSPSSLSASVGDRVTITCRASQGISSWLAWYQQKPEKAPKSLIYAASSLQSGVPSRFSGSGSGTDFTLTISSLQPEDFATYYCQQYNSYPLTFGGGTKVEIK = 9.72

What the record says about 1251-D09 heavy chain paired with VL SEQ ID NO: 272 (antibody, V domains shown) VH: QVQLVESGGGVVQPGRSLRLSCAASGFSFSSYGMHWVRQAPDKGLEWVAVIWYDASIRKYAGSVKGRFTISRDNSKNTLYLQMNSLRAEDTAVYYCARGGTVERGAIYGTDVWGQGTTVTVSS VL: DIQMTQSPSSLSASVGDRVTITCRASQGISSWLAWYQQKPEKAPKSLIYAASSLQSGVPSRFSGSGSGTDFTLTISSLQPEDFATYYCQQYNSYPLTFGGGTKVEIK : pKd is 9.86

src = patent US20170253656A1
